reported.endpoint: melting point

Form field melting point, entry CCCOc1ccc(-c2ccc3c(c2)C=C(C(=O)Nc2ccc(C(O)c4ccccn4)cc2)CCS3(=O)=O)cc1 (stereo unspecified) : 208 to 210 °C

---

# key: entry, value: melting point

> print(dat)
                                   compound  reported.endpoint  observed.measurement
1                    Oc1cc(COCc2ccccc2)ncn1      melting point         102 to 103 °C
2  CCC(Oc1ccc(F)cc1F)C(=O)OC1CC(O)C=C2C=CC(C)C(CCC3CC(O)CC(=O)O3)C21 (mixture of isomers)      melting point         153 to 155 °C
3  CCC(=O)N1CCc2ccccc2C(Oc2ccc(C(F)(F)F)cc2)C1 (configuration not stated)      melting point         109 to 110 °C
4  CC(C)(C)OC(=O)N1CC2CN(c3nc(C4=NOC(c5c(F)cccc5F)C4)cs3)CC2C1 (configuration not stated)      melting point       78.9 to 80.2 °C
5  O[C@H](COc1cccc2[nH]ccc12)CN1CC=C(c2c[nH]c3ccc(F)cc23)CC1      melting point          95 to 100 °C

Form field melting point, entry CCOC(=O)c1nc(NC)sc1-c1cn2ccc(C)cc2n1 : 210 to 213 °C

Form field melting point, entry CCN(Cc1c(F)cccc1Cl)c1c([N+](=O)[O-])cc(C(F)(F)F)c(Cl)c1[N+](=O)[O-] : 118 to 125 °C

Form field melting point, entry O=C1CCC(C(=O)c2ccc(Cl)cc2)N1 (configuration not stated) : 174 °C

Form field melting point, entry NCCCCCCO[PH](=O)CC(=O)O (configuration not stated) : 236 to 238 °C

Form field melting point, entry Cc1ccc(C(=O)NCCCSc2ccncc2)s1 : 86 to 87 °C

Form field melting point, entry CCC(=O)C(=CS(=O)(=O)c1ccc(OS(=O)(=O)c2ccc(C)cc2)cc1)N(C)C : 148 to 150 °C

Form field melting point, entry CC1(C)OC[C@H](Cc2ccccc2)N1C(=O)Cn1cc(-c2ccc(-c3ccccc3)cc2)cn1 : 150 to 151 °C

---

# key: entry, value: melting point

Some solved cases for reference:
> print(dat)
                                    compound  observed.measurement
 1  CCOC(=O)c1c[nH]c2c(OC)ccc(-c3ccccc3)c2c1=O         234 to 237 °C
 2  CC(C)[C@H](COc1ccccc1)Nc1nc(Cl)nc2c1ncn2[C@@H]1O[C@H](CO)[C@@H](O)[C@H]1O          95 to 100 °C
 3  CCC1CC2=CC(OC(=O)c3ccc([N+](=O)[O-])cc3)CCC2C2CCC3(C)C(O)CCC3C12 (stereo unspecified)         135 to 136 °C
 4                       N#Cc1cc2cccnc2nc1Cl                273 °C
 5  NCCC(O)(c1ccc(Cl)cc1)c1ccc(-c2ccc(Br)cc2)cc1 (stereo unspecified)         154 to 155 °C
 6  CCCc1c(OCCCOc2ccc(CC(=O)OC)cc2Br)ccc(C(C)=O)c1O           91 to 92 °C
 7  CC1(NC(=O)C(Br)CBr)COCOC1 (stereo unspecified)         115 to 119 °C
 8          Cn1nc(-c2ccc(Cl)cc2)c2ccccc2c1=O         151 to 152 °C
 9  CCOC(=O)C(C)(C)Sc1ccc2c(-c3ccccc3F)noc2c1Cl               83.4 °C
10  O=c1c(Cl)c(OCc2ccc(F)cc2F)ccn1Cc1cccc2c1CCNC2         180 to 184 °C

Shift focus to the following entry.
Form field melting point, entry O=c1nc(-c2ccnc(-c3cccs3)c2)sc2ccccc12 : 160 to 161 °C

---

# key: entry, value: melting point

Some solved cases for reference:
> print(dat)
                                   compound  observed.measurement
1  CC(C)=CCN(c1ccc(OCc2ccccc2)cc1)C1CCN(C(=O)C2CN(C)CCN2CCC(C)C)CC1 (stereo not drawn)           85 to 86 °C
2  CCOc1cc(N(CC)CC)ccc1C1(N(c2ccccc2)c2ccc(NC(C)=O)cc2)OC(=O)c2ccccc21 (stereo not drawn)         126 to 131 °C
3  CC1=C(Cc2cccc(Br)c2)C(=O)C2C=CC=CC2C1=O (stereo not drawn)         108 to 109 °C
4  Cc1cc(C(=O)c2[nH]c3cc(Cl)ccc3c2CC(=O)O)no1         227 to 229 °C
5  O=C(c1cc(Cl)ccc1O)c1cc(Cl)cc([N+](=O)[O-])c1O                153 °C

Form field melting point, entry COc1ccc(C(=O)Nc2ccccc2)cc1NCc1ccccc1 : 164 to 165 °C

Form field melting point, entry CCS(=O)(=O)Nc1ccc(C(O)CNCC2CCc3ccccc3C2=O)cc1 (stereo not drawn) : 120 to 122 °C

Form field melting point, entry CCN(c1ccc(Cl)cc1[N+](=O)[O-])S(=O)(=O)c1ccc(C#N)cc1 : 146 to 148 °C

---

# key: entry, value: melting point

Form field melting point, entry COCOc1cc(OC)ccc1Br : 40 to 42 °C

Form field melting point, entry CCOC(=O)c1nc(-c2ccccc2)c(-c2ccc(=O)n(C(C)C)n2)s1 : 153 to 154 °C

Form field melting point, entry CS(=O)(=O)c1cc(C(=O)N=C(N)N)ccc1Oc1ccc(=O)[nH]n1 : 268 to 270 °C

Form field melting point, entry c1ccc(C(c2ccccc2)N2CCN(CCCCn3cccc3)CC2)cc1 : 80 to 84 °C

Form field melting point, entry C=C1CC(C)(O)CCC2=C(C)CCC12 (centres undefined) : 54 °C

Form field melting point, entry COc1ccc(CN(C)CCCCc2ccc(NC(=O)c3cccc4c(=O)c5ccccc5[nH]c34)cc2)cc1OC : 140 °C

Form field melting point, entry Cc1cc2c(cc1C)C(c1ccccc1)(C(F)(F)C(F)(F)F)c1cc3c(cc1O2)Oc1cc(C)c(C)cc1C3(c1ccccc1)C(F)(F)C(F)(F)F (centres undefined) : 228 to 233 °C

Form field melting point, entry COc1c(Cl)ccc(-c2nc(C(=O)OCc3ccc(OC(F)(F)F)cc3)c(Cl)c(N)c2F)c1F : 155 to 156 °C

Form field melting point, entry Cc1cc(SC2=C(O)CC(CCc3ccc(N)cc3)(CCc3ccc(N)cc3)OC2=O)c(C(C)(C)C)cc1CO : 144 to 146 °C

Form field melting point, entry O=Cc1cc2ccccc2nc1I : 150 to 152 °C

Form field melting point, entry c1ccc(-c2ccc3nc(C4(c5ccc6nccnc6c5)N=c5ccccc5=N4)[nH]c3c2)cc1 : 235 °C

Form field melting point, entry c1cc(-c2ccc(OCCCN3CCCCC3)cc2)ccc1CN1CCCCC1 : 90 °C

Form field melting point, entry COc1ccc2c(c1)Sc1c(cc(OC)c(OC(C)=O)c1Br)N2C : 189 to 190 °C

Form field melting point, entry Nc1c(F)c(N2CC(O)C2)c(F)c2c1c(=O)c(C(=O)O)cn2C1CC1 : 271 to 275 °C

Form field melting point, entry COC1=CCc2cccc(N)c2C1 : 84 to 85 °C

Form field melting point, entry CCONC(=O)c1c(Cl)ccc2cc(Cl)cnc12 : 140 °C

Form field melting point, entry COc1ccc(Oc2ccccc2NS(C)(=O)=O)cc1 : 81 to 83 °C

Form field melting point, entry COC(=O)c1csnc1-c1cc(C(F)(F)F)cc(C(F)(F)F)c1 : 45 to 46.5 °C

---

reported.endpoint: melting point

Some solved cases for reference:
> print(dat)
                                   compound  reported.endpoint  observed.measurement
1  O=C(CC(=O)Nc1ccc2c(c1)NC(=O)/C2=C\c1ccc[nH]1)Nc1ccc(F)cc1      melting point              > 300 °C
2  Cn1ncc(NCCN2CCC(c3noc4cc(F)ccc34)CC2)c(Cl)c1=O      melting point         145 to 147 °C
3  CCOCCOCCOc1cc(N2C(=O)C3=C(CCCC3)C2=O)c(F)cc1Cl      melting point                 61 °C

Form field melting point, entry CCC(O)CN1CCC(c2noc3cc(F)ccc23)CC1 (stereo not drawn) : 87 to 88 °C

Form field melting point, entry CCCc1c(OCCC2Cc3cc(CC(=O)O)ccc3O2)ccc(C(C)=O)c1O (stereo not drawn) : 118 to 126 °C

Form field melting point, entry CCc1ccc2c(c1)C=Cc1cc(C)ccc1C2c1cn(-c2ccnc(NCC(=O)Nc3nnn[nH]3)n2)c(=O)[nH]c1=O (stereo not drawn) : 220 to 225 °C

Form field melting point, entry CC(C)(C)OC(=O)N1C[C@@H](F)C[C@H]1C(=O)O : 158 to 159 °C

Form field melting point, entry CCOC(=O)c1cn(NC=O)c2cc(-n3cccc3)c(F)cc2c1=O : 254 to 257 °C

Form field melting point, entry COc1cc2cc(C(=O)C(C)CC#N)sc2cc1OC (stereo not drawn) : 148 to 150 °C

Form field melting point, entry C=C(C)C(=O)NCCNC(=O)c1ccc2ccccc2c1O : 167 to 169 °C

Form field melting point, entry Cc1cccc2c(Cl)cc(C(F)(Cl)Cl)nc12 : 90 to 94 °C

Form field melting point, entry Cc1cc(SC2=C(O)CC(CCc3ccc(O)cc3)(C3CCCC3)OC2=O)c(C(C)(C)C)cc1N (stereo not drawn) : 133 to 135 °C

Form field melting point, entry O=C(CSCc1ccccc1)CS(=O)(=O)C(c1ccc(Cl)cc1)c1ccc(Cl)cc1 : 108 to 110 °C

Form field melting point, entry CCCc1c(C2=NN=C(C)Cc3cc4[nH]c(=O)oc4cc32)sc2ccccc12 : 307 to 308 °C

Form field melting point, entry C=CCn1nnc2cc(F)c(-n3c(=O)cc(C(F)(F)F)n(C)c3=O)cc21 : 136 to 138 °C

Form field melting point, entry Cc1cc(C(=O)N(C)C)ncc1C(c1cc(F)ccc1F)S(=O)(=O)c1ccc(Cl)cc1 (stereo not drawn) : 207 to 208 °C

Form field melting point, entry COCCOCc1c(C=O)sc2c(=O)c(C(=O)NCc3ccc(Cl)cc3)cn(C)c12 : 152 to 153 °C

Form field melting point, entry Brc1ccc(-c2cc(-c3cccc(Br)c3)no2)cc1 : 169 °C

Form field melting point, entry c1cc2cc([C@@H]3CO3)ccc2s1 : 72 to 76 °C

Form field melting point, entry O=C(CN1C(=O)[C@H](Cl)[C@H]1[S@@](=O)Cc1ccccc1)NCCCCCCc1ccc(F)cc1 : 87 to 89 °C
